System: UO-31
Experiment: NCI tumour cell line growth inhibition, 48 h
The source made the active and inactive calls. Cut-off read from the data, not from the text of the source: active = GI50 up to about 1.1 µM and inactive = higher.
Outcome measure: GI50

1) CCOc1ccc(/N=C\c2ccc3cc(C)ccc3n2)cc1 | 31 µM (inactive)
2) O=C(OC1CCC(=C2SCCCS2)[C@H]1C1SCCCS1)c1ccccc1 (stereo partly specified) | 24.5 µM (inactive)

Value of GI50 reported for the compound O=C(NCCCNC(=O)c1ccc2c(O)c(O)ccc2c1)c1ccc2c(O)c(O)ccc2c1 is 26.6 µM (inactive)

Value of GI50 reported for the compound C/C(=C\c1ccccc1)C(=O)NCc1ccc(C(=O)NCCC(C)C)cc1 is 37.8 µM (inactive)

====

Tested on: HCT-116
Experiment: NCI tumour cell line growth inhibition, 48 h
The source made the active and inactive calls. No stated cut-off is given here; in the data, active = GI50 up to about 1.1 µM and inactive = higher.
# GI50 annotations

Some solved cases for reference:
1. CCOC(=O)C(C)c1nc2cc(N3CCN(C)CC3)c(F)cc2[nH]c1=O (stereo unspecified) | > 100 µM (inactive)
2. O=c1[nH]c2cc([N+](=O)[O-])c(N(CCO)CCO)c([N+](=O)[O-])c2[nH]1 | 27.7 µM (inactive)
3. CC(=O)SSC1(Cl)C(C)(C)C(Cl)(SSC(C)=O)C1(C)C (stereo unspecified) | 44 µM (inactive)
4. Cc1cc2ccc(N)nc2nc1O | > 100 µM (inactive)
5. Nn1c(Nc2ccc(S(N)(=O)=O)cc2)nnc(/C=C/c2c(O)ccc3ccccc23)c1=O | 16.3 µM (inactive)
6. CC1=CCC(O)C=CC(C)C(O)C(C)C=C(C)C(=O)c2c(O)c(C)cc3c2C(=O)C(N)=C(NC(=O)/C=C\C=C/C=CC(C)C(O)CC1=O)C3=O (stereo unspecified) | 21.6 µM (inactive)

Value of GI50 reported for the molecule O=C(NCCCNC(=O)c1ccc2c(O)c(O)ccc2c1)c1ccc2c(O)c(O)ccc2c1 is 32.3 µM (inactive)

Value of GI50 reported for the molecule NC(=O)C12CCC1C1CCCCC12N1CCOCC1 (stereo unspecified) is > 100 µM (inactive)

Value of GI50 reported for the molecule C/C(=C\c1ccccc1)C(=O)NCc1ccc(C(=O)NCCC(C)C)cc1 is 65 µM (inactive)

Value of GI50 reported for the molecule CC(C)(C)OC(=O)NC(Cc1ccccc1)OCc1ccccc1 (stereo unspecified) is 17.9 µM (inactive)

Value of GI50 reported for the molecule COc1ccc(/N=C(/SS/C(=N/c2ccc(OC)cc2)c2ccc([N+](=O)[O-])o2)c2ccc([N+](=O)[O-])o2)cc1 is 1.18 µM (inactive)

====

System: ACHN
Experiment: NCI tumour cell line growth inhibition, 48 h
The source made the active and inactive calls. Cut-off read from the data, not from the text of the source: active = GI50 up to about 1.1 µM and inactive = higher.
Your response should consist of one outcome taken from active, inactive

Before answering, review these 4 worked examples.
1) c1ccc2c(c1)CCN2CCc1c[nH]c2ccccc12 | inactive
2) O=C1CSC2(CCN(CCCN3c4ccccc4Sc4ccc(Cl)cc43)CC2)N1 | inactive
3) Cc1c2n(c(=O)[nH]c1=O)C1OC(CO)C(O2)C1N=[N+]=[N-] (stereo not given) | inactive
4) Cc1ccc(C2=Nc3ccccc3SC(c3cccc([N+](=O)[O-])c3)C2)cc1 (stereo not given) | inactive

// param item: Nc1c(Cl)c([N+](=O)[O-])cc2c1OCCCCO2 ; yields the recorded call
inactive

// param item: CCCCCCCCCCCCCC(=O)N(CCCCCCCCC)CC(O)C(O)C(OC1OC(CO)C(O)C(O)C1O)C(O)CO (stereo not given) ; yields the recorded call
inactive
